target_of_assay: recombinant soluble homotrimeric HA of A/Netherlands/219/03 (H7N7) (Influenza A virus A/Netherlands/219/03(H7N7))
method_summary: trimeric HA microarray, transfection supernatant set 4
measurement_parameters: remark: other sources report otherwise
property: Trimeric HA Binding: RLU (RLU)
Provide only the numeric value, understood in RLU.

Worked cases, Trimeric HA Binding: RLU given:
{"binder": "TCN-523 (5248_A17) (antibody, V domains shown) VH: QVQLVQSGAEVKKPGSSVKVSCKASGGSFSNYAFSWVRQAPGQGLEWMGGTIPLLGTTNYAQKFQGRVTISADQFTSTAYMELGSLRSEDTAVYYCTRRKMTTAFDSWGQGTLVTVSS VL: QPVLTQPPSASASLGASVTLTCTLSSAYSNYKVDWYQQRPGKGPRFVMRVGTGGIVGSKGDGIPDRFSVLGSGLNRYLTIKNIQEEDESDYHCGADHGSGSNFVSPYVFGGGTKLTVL", "output_unit": "RLU", "recorded_measurement": 443}
{"binder": "TCN-535 (5246_P19) (antibody, V domains shown) VH: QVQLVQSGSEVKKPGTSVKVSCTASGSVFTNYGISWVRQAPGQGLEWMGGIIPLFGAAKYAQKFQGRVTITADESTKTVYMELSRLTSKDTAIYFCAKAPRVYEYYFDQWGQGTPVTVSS VL: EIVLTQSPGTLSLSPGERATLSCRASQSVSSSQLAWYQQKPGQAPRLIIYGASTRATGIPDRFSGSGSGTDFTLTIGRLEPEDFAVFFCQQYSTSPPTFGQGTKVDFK", "output_unit": "RLU", "recorded_measurement": 159}
{"binder": "TCN-536 (5095_N01) (antibody, V domains shown) VH: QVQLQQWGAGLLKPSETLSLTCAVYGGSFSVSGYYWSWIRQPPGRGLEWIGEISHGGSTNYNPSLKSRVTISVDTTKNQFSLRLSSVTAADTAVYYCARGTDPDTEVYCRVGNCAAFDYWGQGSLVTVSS VL: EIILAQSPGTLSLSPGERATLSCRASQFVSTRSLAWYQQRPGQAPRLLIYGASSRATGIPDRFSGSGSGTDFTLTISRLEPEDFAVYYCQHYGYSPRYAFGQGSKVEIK", "output_unit": "RLU", "recorded_measurement": 246}

Now, please, on to the next binder.
## Input Need Trimeric HA Binding: RLU of TCN-534 (5249_B02) (antibody, V domains shown) VH: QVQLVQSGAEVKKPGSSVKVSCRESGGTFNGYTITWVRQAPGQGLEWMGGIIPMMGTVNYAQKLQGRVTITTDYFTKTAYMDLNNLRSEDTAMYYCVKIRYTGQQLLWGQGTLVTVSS VL: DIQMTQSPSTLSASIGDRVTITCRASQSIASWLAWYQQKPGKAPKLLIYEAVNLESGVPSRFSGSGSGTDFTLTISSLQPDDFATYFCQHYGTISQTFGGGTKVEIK , thanks.
## Output 361
